Data provenance: ChEMBL document CHEMBL2331553

# tested.on: Voltage-gated inwardly rectifying potassium channel KCNH2 (Homo sapiens, UniProt Q12809)
# Sequence (Q12809 whole entry): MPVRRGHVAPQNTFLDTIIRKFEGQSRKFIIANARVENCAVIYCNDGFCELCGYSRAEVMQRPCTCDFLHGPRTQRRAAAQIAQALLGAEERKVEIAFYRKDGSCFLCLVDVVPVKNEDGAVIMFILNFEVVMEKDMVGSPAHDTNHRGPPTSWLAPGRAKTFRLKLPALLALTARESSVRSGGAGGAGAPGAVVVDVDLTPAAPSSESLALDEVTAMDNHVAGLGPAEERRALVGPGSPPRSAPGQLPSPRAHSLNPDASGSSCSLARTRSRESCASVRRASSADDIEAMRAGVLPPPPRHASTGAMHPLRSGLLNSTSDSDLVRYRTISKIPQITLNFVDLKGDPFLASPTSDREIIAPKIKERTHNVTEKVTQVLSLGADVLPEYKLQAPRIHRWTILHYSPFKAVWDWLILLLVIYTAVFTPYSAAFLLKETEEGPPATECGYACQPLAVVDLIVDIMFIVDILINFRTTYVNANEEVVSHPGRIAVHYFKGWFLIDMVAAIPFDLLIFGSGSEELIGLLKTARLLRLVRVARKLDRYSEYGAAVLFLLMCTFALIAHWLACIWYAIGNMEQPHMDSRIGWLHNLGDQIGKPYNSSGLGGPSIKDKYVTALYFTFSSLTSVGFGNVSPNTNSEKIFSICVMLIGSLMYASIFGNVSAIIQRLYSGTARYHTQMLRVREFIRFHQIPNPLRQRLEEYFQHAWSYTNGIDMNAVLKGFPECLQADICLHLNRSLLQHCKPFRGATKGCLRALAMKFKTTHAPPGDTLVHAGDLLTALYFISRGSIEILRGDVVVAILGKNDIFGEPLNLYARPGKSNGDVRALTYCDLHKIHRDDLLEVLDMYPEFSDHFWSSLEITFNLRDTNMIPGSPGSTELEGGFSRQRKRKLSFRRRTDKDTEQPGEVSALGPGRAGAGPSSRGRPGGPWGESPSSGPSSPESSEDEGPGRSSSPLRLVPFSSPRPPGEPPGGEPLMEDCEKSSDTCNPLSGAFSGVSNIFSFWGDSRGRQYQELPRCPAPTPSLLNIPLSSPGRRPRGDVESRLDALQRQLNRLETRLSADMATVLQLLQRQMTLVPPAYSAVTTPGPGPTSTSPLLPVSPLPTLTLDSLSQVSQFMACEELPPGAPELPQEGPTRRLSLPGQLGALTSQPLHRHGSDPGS
# experiment.description: Inhibition of human ERG expressed in CHO cells by IONWORKS assay
The label is condition met for IC50 below 6 µM and condition not met for IC50 equal to or exceeding 6 µM.

Before answering, review these 8 worked examples.
{"compound": "CC(C)(C)NC(=O)NCCN1CCC(O)(CNC(=O)c2cc(Cl)cc(Cl)c2)CC1", "group.label": "condition not met"}
{"compound": "CC(C)(C)NC(=O)NCCN1CCC(CO)(CNC(=O)c2cc(Cl)cc(Cl)c2)CC1", "group.label": "condition not met"}
{"compound": "CC(C)(C)NC(=O)NCCN1CCCC(NC(=O)c2cc(Cl)cc(Cl)c2)C1 (centres undefined)", "group.label": "condition met"}
{"compound": "CC(C)(C)NC(=O)NCCN1CCC(CNC(=O)c2cc(Cl)cc(Cl)c2)C1 (centres undefined)", "group.label": "condition met"}
{"compound": "CC(C)(C)NC(=O)NCCN1CCN(CC(=O)Nc2cc(Cl)cc(Cl)c2)CC1", "group.label": "condition met"}
{"compound": "CC(C)(C)NC(=O)NCCN1CCOC(CNC(=O)c2cc(Cl)cc(Cl)c2)C1 (centres undefined)", "group.label": "condition not met"}
{"compound": "CC(C)(C)NC(=O)NCCN1CCN(CC(=O)NC23CC4CC(CC(C4)C2)C3)CC1", "group.label": "condition not met"}
{"compound": "CC(C)(C)NC(=O)NCCN1CCC(CNC(=O)c2cc(Cl)cc(Cl)c2)CC1", "group.label": "condition not met"}

Then there is this compound:
*Q* Hello, is IC50 of the following compound strictly smaller than 6 µM? CC(C)(C)NC(=O)NCCN1CCC(NC(=O)c2cc(Cl)cc(Cl)c2)C1 (centres undefined)
*A* condition not met
